molecular target: T1, PSMA Fab; test: clonal phage ELISA on captured PSMA Fab pre-incubated with PSMA antigen as competitor, anti-M13 HRP detection;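 further: crude clonal phage supernatants tested by ELISA, wells first treated with blocking buffer plus PSMA antigen, bound phage read out via HRP-linked anti-M13 antibody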
T1 construct: also called Anti-PSMA Fab; 006 PSMA Fab
Where no end group is shown, it is not given here.
Quantity measured: phage binding ELISA signal (Anti-PSMA Fab, PSMA antigen present)

Binder | Observed value
LLPACKPTWMCTGL (cysteine pairing not given here; also: fused to phage pIII, orientation and linker not given here, Clonal phage of the Peptide-180 library, tested as crude supernatant; not shown: fused to pIII of the bacteriophage) [Phage-3149] | 0.135
DMSLCKPPWMCFGF (cysteine pairing not given here; also: fused to phage pIII, orientation and linker not given here, Clonal phage of the Peptide-180 library, tested as crude supernatant; not shown: fused to pIII of the bacteriophage) [Phage-3153] | 0.0792
FPRLCEPLWMCKGF (cysteine pairing not given here; also: fused to phage pIII, orientation and linker not given here, Clonal phage of the Peptide-180 library, tested as crude supernatant; not shown: fused to pIII of the bacteriophage) [Phage-3151] | 0.0987
SVPLCIPEWMCVGF (cysteine pairing not given here; also: fused to phage pIII, orientation and linker not given here, Clonal phage of the Peptide-180 library, tested as crude supernatant; not shown: fused to pIII of the bacteriophage) [Phage-3143] | 0.106
IERSCTPSWMCHGF (cysteine pairing not given here; also: fused to phage pIII, orientation and linker not given here, Clonal phage of the Peptide-180 library, tested as crude supernatant; not shown: fused to pIII of the bacteriophage) [Phage-3145] | 0.072
PWIVCKPAWMCTGF (cysteine pairing not given here; also: fused to phage pIII, orientation and linker not given here, Clonal phage of the Peptide-180 library, tested as crude supernatant; not shown: fused to pIII of the bacteriophage) [Phage-3154] | 0.118
IQVMCRPAWMCSGF (cysteine pairing not given here; also: fused to phage pIII, orientation and linker not given here, Clonal phage of the Peptide-180 library, tested as crude supernatant; not shown: fused to pIII of the bacteriophage) [Phage-3156] | 0.0959
FEMFCIPAWMCSGL (cysteine pairing not given here; also: fused to phage pIII, orientation and linker not given here, Clonal phage of the Peptide-180 library, tested as crude supernatant; not shown: fused to pIII of the bacteriophage) [Phage-3147] | 0.0821
